molecular target: UniProt Q7TQM4
Sequence (Q7TQM4 whole entry): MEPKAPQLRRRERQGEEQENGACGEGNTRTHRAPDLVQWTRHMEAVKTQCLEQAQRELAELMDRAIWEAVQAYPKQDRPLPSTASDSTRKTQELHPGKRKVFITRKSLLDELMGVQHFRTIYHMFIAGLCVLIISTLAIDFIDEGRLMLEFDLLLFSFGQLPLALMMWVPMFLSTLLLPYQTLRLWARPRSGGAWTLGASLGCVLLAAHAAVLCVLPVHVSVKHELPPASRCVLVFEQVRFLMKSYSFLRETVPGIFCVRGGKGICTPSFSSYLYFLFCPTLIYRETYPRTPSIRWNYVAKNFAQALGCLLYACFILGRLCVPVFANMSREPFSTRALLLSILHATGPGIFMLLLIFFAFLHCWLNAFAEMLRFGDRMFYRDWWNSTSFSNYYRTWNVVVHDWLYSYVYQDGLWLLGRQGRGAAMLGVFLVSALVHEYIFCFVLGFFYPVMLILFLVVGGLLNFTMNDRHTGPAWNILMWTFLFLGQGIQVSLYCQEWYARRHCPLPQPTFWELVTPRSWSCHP
Consider the following compounds; for each one, report its IC50.
Numbers only, in nM.

CCCCCCCN(CCSc1nc(-c2ccccc2)c(-c2ccccc2)[nH]1)C(=O)Nc1ccc(F)cc1F [Example 189] ... 70

I would be grateful if you could provide IC50 for each of the following entries.
1. CCCCCCCN(CCCCCSc1nc(-c2ccccc2)c(-c2ccccc2)[nH]1)C(=O)NC1CCCCC1 [Example 94]
2. CCCCCCCN(CCCCCSc1nc(-c2ccccc2)c(-c2ccccc2)[nH]1)C(=O)Oc1ccccc1 [Example 402]

Result:
10
20

Each recorded value in this set is attributed to patent US5318984A.
